src = patent US9708306B2

Reported inhibition in vivo at 1 mg/kg values for the following molecules.
test system: normal rats; experiment: Effect on blood pressure of normal rats by single oral administration; assay type: in vivo, Wistar rats; settings: Rattus norvegicus, po, 8 h; 1.0 mg/kg p.o., single, normal rats; read-out: blood pressure reduction at 8 h after the administration
Measured Metric: inhibition in vivo at 1 mg/kg

In [3]: df
Out[3]:
                                    molecule  tested_target  result_value
 0  CCOC(=O)C(=O)OC(C)C(=O)COC(=O)c1cccc2nc(OCC)n(Cc3ccc(-c4ccccc4-c4noc(=O)[nH]4)cc3)c12 (stereo not shown)    normal rats          2.3%
 1  CCOc1nc2cccc(C(=O)OCCCCOc3no[n+]([O-])c3S(=O)(=O)c3ccccc3)c2n1Cc1ccc(-c2ccccc2-c2noc(=O)[nH]2)cc1    normal rats          3.8%
 2  CCOc1nc2cccc(C(=O)OCc3oc(=O)c(=O)oc3C)c2n1Cc1ccc(-c2ccccc2-c2noc(=O)[nH]2)cc1    normal rats          2.7%
 3  CCOc1nc2cccc(C(=O)OCc3no[n+]([O-])c3C(C)(C)C)c2n1Cc1ccc(-c2ccccc2-c2noc(=O)[nH]2)cc1    normal rats          4.3%
 4  CCOc1nc2cccc(C(=O)OCc3oc(=S)oc3C)c2n1Cc1ccc(-c2ccccc2-c2noc(=O)[nH]2)cc1    normal rats          6.2%
 5  CCOc1nc2cccc(C(=O)OCCO[N+](=O)[O-])c2n1Cc1ccc(-c2ccccc2-c2noc(=O)[nH]2)cc1    normal rats          4.2%
 6  CCOc1nc2cccc(C(=O)OCOC(=O)OCc3no[n+]([O-])c3C)c2n1Cc1ccc(-c2ccccc2-c2noc(=O)[nH]2)cc1    normal rats          3.9%
 7  CCOc1nc2cccc(C(=O)OC(OC(=O)OCc3nc(C)c(C)nc3C)C(C)C)c2n1Cc1ccc(-c2ccccc2-c2noc(=O)[nH]2)cc1 (stereo not shown)    normal rats          4.8%
 8  CCOc1nc2cccc(C(=O)OCc3no[n+]([O-])c3C#N)c2n1Cc1ccc(-c2ccccc2-c2noc(=O)[nH]2)cc1    normal rats          5.2%
 9  CCOc1nc2cccc(C(=O)OC(C)OC(=O)OCc3nc(C)c(C)nc3C)c2n1Cc1ccc(-c2ccccc2-c2noc(=O)[nH]2)cc1 (stereo not shown)    normal rats          4.2%
10  CCOc1nc2cccc(C(=O)OCc3nc(C)c(C)nc3C)c2n1Cc1ccc(-c2ccccc2-c2noc(=O)[nH]2)cc1    normal rats          7.2%
11  CCOc1nc2cccc(C(=O)OC(OC(=O)OCc3nc(C)c(C)nc3C)C(C)(C)C)c2n1Cc1ccc(-c2ccccc2-c2noc(=O)[nH]2)cc1 (stereo not shown)    normal rats          3.9%
12  CCOc1nc2cccc(C(=O)OC(C)OC(=O)OCc3no[n+]([O-])c3C)c2n1Cc1ccc(-c2ccccc2-c2noc(=O)[nH]2)cc1 (stereo not shown)    normal rats          3.9%

====

tested on: renovascular hypertensive rats; experiment: Effect on reducing blood pressure of renovascular hypertensive rats by single oral administration; type: in vivo, Wistar rats; conditions: renal artery-ligated rat, 24 hours after the administration, dose not stated
hey, just use Fulfilled if measured blood pressure reduction at 24 hours after the administration is less than 20%, otherwise Not fulfilled

>>> df
                                   molecule  assigned_class
0  CCOc1nc2cccc(C(=O)OCc3no[n+]([O-])c3C#N)c2n1Cc1ccc(-c2ccccc2-c2noc(=O)[nH]2)cc1   Not fulfilled
1  CCOc1nc2cccc(C(=O)OCOC(=O)C(C)(C)C)c2n1Cc1ccc(-c2ccccc2-c2noc(=O)[nH]2)cc1   Not fulfilled
2  CCOc1nc2cccc(C(=O)OC(C)OC(=O)OCc3nc(C)c(C)nc3C)c2n1Cc1ccc(-c2ccccc2-c2noc(=O)[nH]2)cc1 (centres unmarked)   Not fulfilled
3  CCOc1nc2cccc(C(=O)OCc3no[n+]([O-])c3C)c2n1Cc1ccc(-c2ccccc2-c2noc(=O)[nH]2)cc1       Fulfilled
4  CCOc1nc2cccc(C(=O)OCOC(=O)OCc3no[n+]([O-])c3C)c2n1Cc1ccc(-c2ccccc2-c2noc(=O)[nH]2)cc1       Fulfilled
5  CCOc1nc2cccc(C(=O)OCc3no[n+]([O-])c3CO[N+](=O)[O-])c2n1Cc1ccc(-c2ccccc2-c2noc(=O)[nH]2)cc1   Not fulfilled
6  CCOc1nc2cccc(C(=O)OCc3c(-c4ccccc4)no[n+]3[O-])c2n1Cc1ccc(-c2ccccc2-c2noc(=O)[nH]2)cc1   Not fulfilled
